Assayed target: T1, FZD1 CRD (Homo sapiens, UniProt Q9UP38)
T1 construct: D112-P238; GPI anchor signal (C); expressed in transfected cells; host or cells: CHO cells, lentiviral pLenti-puro
Assay notes: Immunofluorescence of anti-FZD5 Fab binding to CHO cells overexpressing Frizzled CRD
Parameters: key: −: no binding; +: very weak binder; ++: weak binder; +++: good binder; ++++: very good binder
Parameter: Immunofluorescence binding, Frizzled CRD overexpressed on CHO cells: FZD1

>>> reported_measurement("Fab-2907: anti-FZD5 Fab with antibody variable region Fv-2907; CDR SEQ ID NOs: 35, 36, 46, 85, 122, 159 (antibody, V domains shown) VH: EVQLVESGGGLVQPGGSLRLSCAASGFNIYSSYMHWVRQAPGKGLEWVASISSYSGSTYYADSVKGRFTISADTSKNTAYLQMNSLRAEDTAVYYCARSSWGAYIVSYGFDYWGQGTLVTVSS VL: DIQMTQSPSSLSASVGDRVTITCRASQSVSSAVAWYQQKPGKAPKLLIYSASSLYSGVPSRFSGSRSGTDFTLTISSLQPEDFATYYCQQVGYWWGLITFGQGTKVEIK")
"−"
>>> reported_measurement("Fab-2910: anti-FZD5 Fab with antibody variable region Fv-2910; CDR SEQ ID NOs: 35, 36, 49, 88, 125, 162 (antibody, V domains shown) VH: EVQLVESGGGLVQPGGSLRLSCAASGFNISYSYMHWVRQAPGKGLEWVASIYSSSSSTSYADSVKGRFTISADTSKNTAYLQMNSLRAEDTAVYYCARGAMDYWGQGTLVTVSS VL: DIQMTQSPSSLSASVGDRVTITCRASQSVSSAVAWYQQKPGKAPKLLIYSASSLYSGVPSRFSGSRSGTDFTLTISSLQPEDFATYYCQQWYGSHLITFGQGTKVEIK")
"−"
